Tested on: BALB/3T3
Experiment: Cytotoxicity against mouse BALB/3T3 cells after 72 hrs by SRB assay
Assay type: cell-based
Conditions: BALB/3T3, 72 h
Please respond with reported IC50 for every item in the list.
Numbers only, in µM.

Solved cases (10 shown):
Molecule | Measured target | Unit | IC50
COc1ccc(C2C[C@]34OO[C@](C)(C=C3C(=O)O2)C(c2ccc([N+](=O)[O-])cc2)O4)cc1OC (some centres undefined) | BALB/3T3 | µM | 7.2
C[C@]12C=C3C(=O)OC(c4ccc(Cl)cc4)C[C@@]3(OO1)OC2c1ccc([N+](=O)[O-])cc1 (some centres undefined) | BALB/3T3 | µM | 8.21
CC1O[C@]23CC(c4ccc(Br)cc4)OC(=O)C2=C[C@@]1(C)OO3 (some centres undefined) | BALB/3T3 | µM | 12
C[C@]12C=C3C(=O)OC(c4ccccc4Br)C[C@@]3(OO1)OC2c1ccc([N+](=O)[O-])cc1 (some centres undefined) | BALB/3T3 | µM | 7.53
COc1ccc(C2O[C@]34CC(c5ccc(F)cc5)OC(=O)C3=C[C@@]2(C)OO4)cc1 (some centres undefined) | BALB/3T3 | µM | 9.06
COc1ccc(C2C[C@]34OO[C@](C)(C=C3C(=O)O2)C(c2ccccc2)O4)cc1OC (some centres undefined) | BALB/3T3 | µM | 10.1
COc1ccc(C2O[C@]34CC(c5cccc(Cl)c5)OC(=O)C3=C[C@@]2(C)OO4)cc1 (some centres undefined) | BALB/3T3 | µM | 8.97
CC1O[C@]23CC(c4ccc(Cl)cc4)N(C(=O)OC(C)(C)C)C(=O)C2=C[C@@]1(C)OO3 (some centres undefined) | BALB/3T3 | µM | 6.21
COc1ccc(C2C[C@]34OO[C@](C)(C=C3C(=O)O2)C(c2ccc([N+](=O)[O-])cc2)O4)cc1 (some centres undefined) | BALB/3T3 | µM | 7.36
COc1ccc(C2O[C@]34CC(c5ccc(Cl)cc5)N(C(=O)OC(C)(C)C)C(=O)C3=C[C@@]2(C)OO4)cc1 (some centres undefined) | BALB/3T3 | µM | 6.87

Could I get IC50 for every one of these entries?
1. CC1O[C@]23CC(c4ccc(C(F)(F)F)cc4)OC(=O)C2=C[C@@]1(C)OO3 (some centres undefined)
2. CC(C)(C)OC(=O)N1C(=O)C2=C[C@@]3(C)OO[C@]2(CC1c1ccc(Cl)cc1)OC3c1ccc([N+](=O)[O-])cc1 (some centres undefined)
3. C[C@]12C=C3C(=O)OC(c4ccc(C(F)(F)F)cc4)C[C@@]3(OO1)OC2c1ccccc1 (some centres undefined)
4. CC(C)(C)OC(=O)N1C(=O)C2=C[C@@]3(C)OO[C@]2(CC1c1ccc(Cl)cc1)OC3c1ccccc1 (some centres undefined)

[out]
12.5
6.67
9.01
5.46
